Origin of values: paper PMC6451091

# Tested target: PU.1 (IVT) (UniProt P17947 1-270)
# Test description: protein-binding microarray (PBM); 20 mM HEPES pH 7.9, 100 mM NaCl, 1 mM DTT, 0.2 mg/mL BSA, 0.02% Triton X-100, 2% milk, 0.4 mg/mL salmon testes DNA; 1 h; temperature not stated; high values mean tight binding
# Condition label: dsDNA, one strand shown
Over roughly 3,700 sequences, “z-score” has its median near 4; the highest 2% begin near 8.4. The entries come from a sample that favours the highest values as a whole.

>  <Residue codes>
GCCTAGCACAGAAAGAGGAAGTGAAGCTAGTGCTAGGTCTTGATTCGCTTGACGCTGCTG

>  <binding signal, z-score>
8.64

$$$$
>  <Residue codes>
GCCTAGCACGCCAGGAGGAAGTGGAAATGGTGCTAGGTCTTGATTCGCTTGACGCTGCTG

>  <binding signal, z-score>
4.22

$$$$
>  <Residue codes>
GCCTAGCACGAAATGAGGAAGTGATTAGGGTGCTAGGTCTTGATTCGCTTGACGCTGCTG

>  <binding signal, z-score>
8.13

$$$$
